tested on: dog liver microsomes; experiment: Incubation of F18 with dog liver microsomes, metabolite profiling; assay type: in vitro ADME, beagle dog; set-up: key: +: Metabolite detected; −: metabolite not detected; details: F18 50 μM, 1 h
RECORDED ENDPOINT: F18 metabolite detected in DLM

The examples below pair each entry with its known result.
{"COMPOUND": "CCC(O)c1cc(=O)oc2c3c(c4c(c12)OC(C)(C)C=C4)OC(CCl)CC3=O (centres unmarked) [Metabolite M5-4]", "F18 metabolite detected in DLM": "−"}
{"COMPOUND": "CCCc1cc(=O)oc2c3c(c4c(c12)OC(C)(C)C=C4)OC(CO)CC3=O (centres unmarked) [Metabolite M1]", "F18 metabolite detected in DLM": "+"}
{"COMPOUND": "CC(O)Cc1cc(=O)oc2c3c(c4c(c12)OC(C)(C)C=C4)OC(CCl)CC3=O (centres unmarked) [Metabolite M5-2]", "F18 metabolite detected in DLM": "+"}
{"COMPOUND": "CCCc1cc(=O)oc2c3c(c4c(c12)OC(C)(C)C=C4)O[C@H](CCl)C[C@H]3O (relative stereo) [Metabolite M3-1, trans-12-hydroxy F18]", "F18 metabolite detected in DLM": "+"}
{"COMPOUND": "CC=Cc1cc(=O)oc2c3c(c4c(c12)OC(C)(C)C=C4)OC(CCl)CC3=O (centres unmarked) [Metabolite M2-9]", "F18 metabolite detected in DLM": "−"}

Task item: Give its F18 metabolite detected in DLM value. Item: CC(O)Cc1cc(=O)oc2c3c(c4c(c12)OC(C)(C)C=C4)OC(CCl)CC3=O (centres unmarked) [Metabolite M5-3]
Reply: +

Task item: Entry to check: CCCc1cc(=O)oc2c3c(c4c(c12)OC(C)(C)C=C4)O[C@H](CCl)C[C@@H]3O (relative stereo) [Metabolite M3-2, cis-12-hydroxy F18]
Reply: +

Task item: Entry to check: CCC(O)c1cc(=O)oc2c3c(c4c(c12)OC(C)(C)C=C4)OC(CCl)CC3=O (centres unmarked) [Metabolite M5-5]
Reply: −

* * *

system: carbonyl reductases in HLcy; assay: Inhibition of carbonyl reduction of F18 (formation of M3-1 and M3-2) by chemical inhibitors in HLcy; format: in vitro ADME, human; details: HLcy, cofactor not given, F18 10 μM, 10 min; low concentration 10 μM
RECORDED ENDPOINT: Percentage of inhibition of the formation of M3-2, L (%)
# number only, unit % dropped from output

Task item: Give its Percentage of inhibition of the formation of M3-2, L value. Item: O=C(O)c1ccccc1Nc1cccc(C(F)(F)F)c1 [Flufenamic acid, flufenamic acid]
Reply: 88.5

Task item: Entry to check: O=c1c(O)c(-c2ccc(O)c(O)c2)oc2cc(O)cc(O)c12 [Quercetin, quercetin]
Reply: 54.6

Task item: Entry to check: CC1=CC(=O)c2ccccc2C1=O [Menadione, menadione]
Reply: 20.1

Task item: Entry to check: C[C@H](CCC(=O)O)[C@H]1CC[C@H]2[C@@H]3[C@H](O)C[C@@H]4C[C@H](O)CC[C@]4(C)[C@H]3CC[C@]12C [Chenodeoxycholic, chenodeoxycholic acid]
Reply: 62.3
